Target: UniProtKB P28335
Sequence (P28335 whole entry): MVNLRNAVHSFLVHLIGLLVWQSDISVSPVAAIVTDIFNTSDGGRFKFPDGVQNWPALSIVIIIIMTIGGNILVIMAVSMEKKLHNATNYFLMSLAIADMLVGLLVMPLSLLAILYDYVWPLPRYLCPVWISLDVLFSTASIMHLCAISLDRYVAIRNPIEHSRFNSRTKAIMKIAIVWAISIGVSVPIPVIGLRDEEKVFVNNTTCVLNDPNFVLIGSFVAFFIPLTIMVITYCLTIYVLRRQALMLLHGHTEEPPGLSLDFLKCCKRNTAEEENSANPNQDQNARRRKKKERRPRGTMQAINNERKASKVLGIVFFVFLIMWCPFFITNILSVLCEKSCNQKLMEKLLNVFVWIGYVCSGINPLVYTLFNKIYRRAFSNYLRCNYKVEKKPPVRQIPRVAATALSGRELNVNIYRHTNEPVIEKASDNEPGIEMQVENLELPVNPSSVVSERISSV
ENDPOINT NAME: Ki (nM)
Give bare numbers, in nM.

What does the record list as Ki for CCN(CC)CC.O=C1CC(=O)N(c2ccnc(-c3noc(=S)[nH]3)c2)c2ccc3ccccc3c2N1 ?
6

====

Target: P2X purinoceptor 4 (Rattus norvegicus)
Sequence (P51577 whole entry): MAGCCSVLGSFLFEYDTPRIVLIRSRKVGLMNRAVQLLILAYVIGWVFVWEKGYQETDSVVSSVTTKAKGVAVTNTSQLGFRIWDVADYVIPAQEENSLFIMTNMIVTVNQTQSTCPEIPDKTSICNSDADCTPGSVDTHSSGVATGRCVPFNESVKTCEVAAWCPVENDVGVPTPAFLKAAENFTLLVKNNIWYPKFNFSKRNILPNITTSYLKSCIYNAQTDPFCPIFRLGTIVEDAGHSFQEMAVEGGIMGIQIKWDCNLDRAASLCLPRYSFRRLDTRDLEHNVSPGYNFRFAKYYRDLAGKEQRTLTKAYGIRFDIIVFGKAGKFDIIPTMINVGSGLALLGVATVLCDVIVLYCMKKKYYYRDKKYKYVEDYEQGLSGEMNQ
Test: Antagonist activity at rat P2X4R expressed in HEK293 cells preincubated for 2 mins followed by ATP addition and measured after 4 mins
ENDPOINT NAME: pIC50
Give bare numbers, as −log10 of the molar value.

What measured pIC50 is associated with O=C1CN=C(c2cccc(Br)c2)c2oc3ccccc3c2N1 on P2X purinoceptor 4 (Rattus norvegicus)?
6.12

====

For each of the molecules below, state its Activity.
Target: P2X purinoceptor 1 (Homo sapiens) (UniProt P51575)
Sequence (P51575 whole entry): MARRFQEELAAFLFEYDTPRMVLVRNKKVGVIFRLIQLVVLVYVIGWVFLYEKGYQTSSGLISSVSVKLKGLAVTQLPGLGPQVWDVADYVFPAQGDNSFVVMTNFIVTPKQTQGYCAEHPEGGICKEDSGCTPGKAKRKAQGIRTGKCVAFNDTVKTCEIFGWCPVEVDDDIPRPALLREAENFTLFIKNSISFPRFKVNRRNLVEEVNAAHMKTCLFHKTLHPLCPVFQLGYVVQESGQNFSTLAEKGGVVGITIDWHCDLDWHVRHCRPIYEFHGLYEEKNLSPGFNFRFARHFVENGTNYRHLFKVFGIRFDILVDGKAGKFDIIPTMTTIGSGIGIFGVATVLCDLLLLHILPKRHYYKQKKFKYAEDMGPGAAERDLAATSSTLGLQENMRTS
Assay: Antagonist activity at human P2X1R transfected in CHO-K1 cells at 30 uM preincubated for 30 mins followed by alpha,beta-meATP addition by […] based assay relative to control
Format: cell-based
Design: scale not given: the % may be the effect or the level left
One number for each entry, in %.

Answered cases to consult:
- [N-]=[N+]=NCc1ccc2ccc3c(c2c1)NC(=O)CC(=O)N3c1cccc(-c2noc(=S)[nH]2)c1: 8
- CCCCC#Cc1cc2c(c3ccccc13)NC(=O)CC(=O)N2c1cccc(-c2noc(=S)[nH]2)c1: 16
- Cc1ccc2c(Br)cc3c(c2c1)NC(=O)CC(=O)N3c1cccc(-c2noc(=S)[nH]2)c1: -2
- [N-]=[N+]=NCc1ccc2c(Br)cc3c(c2c1)NC(=O)CC(=O)N3c1cccc(-c2noc(=S)[nH]2)c1: -13
- NCc1ccc2ccc3c(c2c1)NC(=O)CC(=O)N3c1cccc(-c2noc(=S)[nH]2)c1: 8

What measured Activity is associated with O=C1CC(=O)N(c2cccc(-c3noc(=S)[nH]3)c2)c2cc(C#Cc3ccccc3)c3ccccc3c2N1 on P2X purinoceptor 1 (Homo sapiens) (UniProt P51575)?
14

====

Target: P2X purinoceptor 4 (Homo sapiens)
Sequence (Q99571 whole entry): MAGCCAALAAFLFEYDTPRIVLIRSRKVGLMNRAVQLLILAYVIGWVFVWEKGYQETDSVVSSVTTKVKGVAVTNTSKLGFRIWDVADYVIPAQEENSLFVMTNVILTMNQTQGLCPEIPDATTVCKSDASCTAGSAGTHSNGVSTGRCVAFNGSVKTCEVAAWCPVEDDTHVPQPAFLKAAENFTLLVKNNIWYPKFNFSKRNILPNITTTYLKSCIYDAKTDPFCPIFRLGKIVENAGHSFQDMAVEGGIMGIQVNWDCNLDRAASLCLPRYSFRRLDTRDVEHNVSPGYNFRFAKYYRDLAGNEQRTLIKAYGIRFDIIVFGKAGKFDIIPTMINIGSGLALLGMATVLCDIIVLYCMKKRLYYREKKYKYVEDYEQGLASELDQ
Assay: Antagonist activity at human P2X4R transfected in HEK293 cells preincubated for 30 mins followed by CTP addition by fluorescence based assay
For each of the molecules below, state its IC50.
Value and unit, in that order.

Report IC50 for every entry below.
1. O=C1CC(=O)N(c2cccc(-c3noc(=S)[nH]3)c2)c2cc(-c3ccccc3)c3ccccc3c2N1
2. Cc1ccc2c(Br)cc3c(c2c1)NC(=O)CC(=O)N3c1cccc(-c2noc(=S)[nH]2)c1
3. [N-]=[N+]=NCc1ccc2c3c(ccc2c1)N(c1cccc(-c2noc(=S)[nH]2)c1)C(=O)CC(=O)N3

1: 20.7 µM; 2: 11.8 µM; 3: 21.3 µM
